- targetEntity: β5 subunit of the human constitutive proteasome (CPS) (Homo sapiens, UniProt P28074)
- measurementNotes: β5 inhibition assay, human constitutive proteasome (Suc-LLVY-AMC)
- assayContext: IC50 class, Suc-LLVY-AMC substrate
pIC50: −log10 of the molar value.
metricName: pIC50

As a guide, the following entries are already answered.
{"compound": "COc1ccc(CCOCCC(=O)N[C@H]2CC(=O)N3CCCC(CCOc4ccc(C)c(c4)CNC(=O)[C@H](CCc4ccccc4)NC2=O)C3)cc1 (stereo partly drawn)", "pIC50": "> 7.00"}
{"compound": "Cc1ccc2cc1CNC(=O)[C@@H](CCc1ccccc1)NC(=O)[C@H](NC(=O)C(C)(C)CS)CC(=O)N1CCCC(CCO2)C1 (stereo partly drawn)", "pIC50": "> 7.00"}

Determine from records and report pIC50 for Cc1ccc2cc1CNC(=O)[C@H](CCc1ccccc1)NC(=O)[C@@H](NC(=O)CCc1ccc(-c3ccccc3)cc1)CC(=O)N1CCCC(CCO2)C1 (stereo partly drawn)
> 7.00
